- studyTarget: GLP-1 receptor (UniProt P43220 24-463, limits assumed)
- protocolSummary: cell-based or functional assay
Groups on a side chain read outwards from the residue. No end group written: not given here. *: point of attachment. Stearoyl = CCCCCCCCCCCCCCCCCC(=O)*; Palmitoyl = CCCCCCCCCCCCCCCC(=O)*
Consider the following binders; for each one, report its EC50.
Answer with a number only, understood to be in nM.

Request the reported EC50 associated with HSQGTFTSDYSKYLDERRAKDFVQWLMNT-NH2 [E16 K20-glucagon-NH2] 0.188

Request the reported EC50 associated with HSQGTFTSDK(Palmitoyl)SKYLDERRAKDFVQWLMNT-NH2 [E16 K20-glucagon-NH2 with K10-C16] 0.125

Request the reported EC50 associated with HSQGTFTSDK([Glu-Palmitoyl])SKYLDERRAKDFVQWLMNT-NH2 [Peptide D (Example 22)] 0.056

Request the reported EC50 associated with HSQGTFTSDK(Stearoyl)SKYLDERRAKDFVQWLMNT-NH2 [E16 K20-glucagon-NH2 with K10-C18] 0.032
